The molecules below have reported ΔTm for Casein kinase I isoform gamma-3 (Homo sapiens).
Give bare numbers, in °C.

Please review the following examples before continuing.
CN(C)CCCn1cc(C2=C(c3c[nH]c4ccccc34)C(=O)NC2=O)c2ccccc21    0.3
O=Nc1c(-c2c(O)[nH]c3ccccc23)[nH]c2ccccc12    2.7
C=CNC#N    0.8
Nc1cc2ncnc(Nc3cccc(Br)c3)c2cc1N    0.4
COc1ccc(CNC(=O)Nc2ncc([N+](=O)[O-])s2)cc1    0.6

Please report ΔTm for every entry that follows.
1. Cc1ccc(NC(=O)c2cccc(N(C)C)c2)cc1NC(=O)c1ccc(O)cc1
2. Cn1cc(/C=C2/C(=O)Nc3ccc(S(N)(=O)=O)cc32)c2ccccc21

Response:
1. 0.3
2. 0.2

Your task in this section: give ΔTm for each listed record.
1. CCCCc1c(-c2ccc(O)cc2)[nH]c2nccnc12
2. Cn1cnc2c(NCc3ccccc3)nc(NCCO)nc21

Response:
2.5
0

// input: 2 molecules below; output: ΔTm for each
1. N=C(N)NCCNS(=O)(=O)c1cccc2cnccc12
2. Cc1c2ccncc2c(C)c2c1[nH]c1ccccc12

Response:
[0.3, 0.7]

###

Target: Serine/threonine-protein kinase Chk2 (Homo sapiens)
Sequence (O96017 whole entry): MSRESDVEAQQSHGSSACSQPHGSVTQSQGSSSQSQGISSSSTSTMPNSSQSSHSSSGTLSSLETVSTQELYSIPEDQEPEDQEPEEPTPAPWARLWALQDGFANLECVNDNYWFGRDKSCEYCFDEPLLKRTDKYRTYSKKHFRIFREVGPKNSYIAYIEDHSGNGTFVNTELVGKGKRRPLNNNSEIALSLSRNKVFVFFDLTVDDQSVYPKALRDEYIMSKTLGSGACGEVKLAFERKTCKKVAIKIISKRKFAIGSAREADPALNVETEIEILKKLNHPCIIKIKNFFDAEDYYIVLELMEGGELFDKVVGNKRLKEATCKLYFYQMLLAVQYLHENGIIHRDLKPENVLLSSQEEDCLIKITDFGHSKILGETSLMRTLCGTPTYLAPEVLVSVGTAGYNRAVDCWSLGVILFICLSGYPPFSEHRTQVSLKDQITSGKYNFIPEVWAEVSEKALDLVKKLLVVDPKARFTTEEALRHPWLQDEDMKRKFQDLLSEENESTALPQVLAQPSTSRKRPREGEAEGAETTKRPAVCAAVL
Lab note: cut-off is 0.2 °C. Strictly less in ΔTm is Condition met. Exactly 0.2 °C or more is Condition not met.

Query: Could you please tell me whether ΔTm recorded for `CN(c1cccnc1)c1cc2c(Nc3ccc(F)c(Cl)c3)c(C#N)cnc2cn1` is less than 0.2 °C?
Response: Condition not met

Query: Is it true that ΔTm reported for `Cc1nc(Nc2ncc(C(=O)Nc3c(C)cccc3Cl)s2)cc(N2CCN(CCO)CC2)n1` is less than 0.2 °C?
Response: Condition not met

Query: Could you please tell me whether ΔTm recorded for `N#C/C(=C\c1ccc(O)c(O)c1)C(=O)Nc1ccccc1` is less than 0.2 °C?
Response: Condition met

Query: Threshold test, ΔTm < 0.2 °C: `O=c1cc(N2CCOCC2)oc2c1ccc1ccccc12`
Response: Condition met

###

Target: Lymphokine-activated killer T-cell-originated protein kinase (Homo sapiens)
Sequence (whole entry): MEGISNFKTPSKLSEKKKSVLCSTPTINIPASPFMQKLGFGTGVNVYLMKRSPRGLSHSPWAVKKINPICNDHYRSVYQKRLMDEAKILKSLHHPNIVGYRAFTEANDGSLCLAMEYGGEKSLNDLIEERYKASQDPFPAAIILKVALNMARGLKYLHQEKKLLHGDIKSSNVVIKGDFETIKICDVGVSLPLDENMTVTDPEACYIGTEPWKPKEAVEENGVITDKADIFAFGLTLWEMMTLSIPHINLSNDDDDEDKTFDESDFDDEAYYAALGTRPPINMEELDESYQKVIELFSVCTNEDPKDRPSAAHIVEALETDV
Would you mind telling me the reported ΔTm of each entry?
Give bare numbers, in °C.

# example entries with known answers
O=C1Nc2cc(Br)ccc2/C1=C1/Nc2ccccc2/C1=N\O    1.1
N#C/C(=C1/Nc2ccccc2S1)c1ccnc(NCCc2cccnc2)n1    0.8
CCN(CC)CCNC(=O)c1c(C)[nH]c(/C=C2\C(=O)Nc3ccc(F)cc32)c1C    0.4
O=C1NC(=O)C(c2cn(CCCn3ccnc3)c3ccccc23)=C1Nc1ccccc1    0.8

Field: next compound
Query: If you can, please state the reported ΔTm value of `COc1ccc(COc2ccc(Cc3cnc(N)nc3N)cc2OC)cc1` .
Response: -0.1
